The reported measurements were obtained from the RNAGym collection of RNA variant scans (doi:10.1073/pnas.2313332121).

Give measured polymerase ribozyme fitness (log ratio) for each item. Keep answers brief.
B1: TPR 5TU (parent)
chain: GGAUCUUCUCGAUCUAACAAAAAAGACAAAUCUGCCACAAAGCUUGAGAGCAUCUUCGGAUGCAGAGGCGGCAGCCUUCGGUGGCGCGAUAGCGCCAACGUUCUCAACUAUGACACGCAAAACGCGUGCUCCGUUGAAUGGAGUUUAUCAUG

variants of: B1; assay: polymerase ribozyme fitness, log enrichment relative to wild type (log ratio); higher = more active; in vitro selection for triplet polymerase activity
This sample holds only a part of the variants without activity.
One number for each entry.

Examples with their reported polymerase ribozyme fitness (log ratio) follow.
A20U A39C	-3.84
G83A U146G	-1.33

For each listed entry, give its polymerase ribozyme fitness (log ratio).
1. A3U G83A C118G A142C
2. A12U A28U U102A U139G U148G

Outgoing:
1: -3.66; 2: -4.1

For each listed entry, give its polymerase ribozyme fitness (log ratio).
1. C85A C96U C132A
2. U82G G94U
3. G84A A97U A147U

Outgoing:
-3.67
-0.833
0.467

For each listed entry, give its polymerase ribozyme fitness (log ratio).
1. G83C G136C
2. A12U
3. A47U G124A
4. C54A C99U
5. C63U C87G
6. U6G C87U C131U

Outgoing:
[-4.09, -0.161, 0.304, -1.85, -4.05, 0.928]

For each listed entry, give its polymerase ribozyme fitness (log ratio).
1. U55G C99A
2. A40C U56A A89G
3. U61A C95U

Outgoing:
-3.24
-0.978
-0.916
